system: T47D; experiment: Breast cancer cell proliferation, Alamar Blue, T47D; format: cell-based; settings: Homo sapiens, 72 h; T47D cells, 2% FBS medium, 3 days
PROPERTY_MEASURED: IC50 (µM)

Cc1n[nH]c2c1C(c1cccc(-c3ccncc3)c1)C(C#N)=C(N)O2 (stereo not shown) [5c]    33.7

[I] Cc1cc(-c2cccc(C3C(C#N)=C(N)Oc4[nH]nc(C)c43)c2)cnc1F (stereo not shown) [5b]
[II] Cc1cc(-c2ccc(C3C(C#N)=C(N)Oc4[nH]nc(C)c43)cc2)cnc1F (stereo not shown) [5f]
Parameter check: reported IC50 is higher for which label, I or II ? Please respond with the label that marks your chosen entry.
II
(II: 45.8 µM, I: 27.5 µM)
